Source: ChEMBL document CHEMBL4371047

Listed here: items and their measured selectivity ratio.
# assay.summary: Therapeutic index, ratio of CC50 for human MT4 cells to EC50 for HIV-1 NL4-3 infected in human MT4 cells
# Format: toxicity, cell-based
# condition.notes: read-out: Ratio CC50/EC50

Below: 3 compounds and their reported selectivity ratio.
compound="Cc1c(C(C)c2c(F)cccc2F)nc(NC(C)C)[nH]c1=O (centres undefined)" measured=10000
compound="CCC(C)Sc1nc(C(OC)c2c(F)cccc2Cl)c(C)c(=O)[nH]1 (centres undefined)" measured=264000
compound="CCC(c1nc(SC2CCCC2)[nH]c(=O)c1C)c1c(F)cccc1F (centres undefined)" measured=2730

Then this compound:
// selectivity ratio lookup, compound = CCC(c1nc(SC(C)C)[nH]c(=O)c1C)c1c(F)cccc1F (centres undefined) , result: > 7500
